# SYSTEM_TESTED: TmaT (Myroides profundi, UniProt A0A0B5RUB0)
# Sequence (A0A0B5RUB0 whole entry): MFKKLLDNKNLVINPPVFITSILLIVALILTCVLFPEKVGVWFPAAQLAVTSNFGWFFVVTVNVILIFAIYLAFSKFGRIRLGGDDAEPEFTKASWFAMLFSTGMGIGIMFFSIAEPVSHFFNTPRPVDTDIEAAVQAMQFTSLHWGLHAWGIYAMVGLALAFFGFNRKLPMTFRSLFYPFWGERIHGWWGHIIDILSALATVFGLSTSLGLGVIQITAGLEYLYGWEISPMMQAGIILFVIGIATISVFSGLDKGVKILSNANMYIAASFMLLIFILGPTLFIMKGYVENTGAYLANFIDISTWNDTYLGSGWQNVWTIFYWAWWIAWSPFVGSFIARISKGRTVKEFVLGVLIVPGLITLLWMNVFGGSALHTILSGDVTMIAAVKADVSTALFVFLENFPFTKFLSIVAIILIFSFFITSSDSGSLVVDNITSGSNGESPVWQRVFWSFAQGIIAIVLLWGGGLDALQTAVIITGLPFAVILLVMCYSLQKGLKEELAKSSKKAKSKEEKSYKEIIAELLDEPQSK
MEASURED_PARAMETER: pKd
Please keep in mind that pKd is minus log10 of the molar concentration; only the number is needed.

## Task Request - read-out pKd | tested on TmaT (Myroides profundi, UniProt A0A0B5RUB0) | compound `CN(C)C`
## Result 4.31
